src = paper PMC5802278

biological target: PHD2 catalytic domain (residues 181-426) (Homo sapiens, UniProt Q9GZT9); test: NMR competition assays (2OG, CODD, NODD displacement); format: binding; set-up: The catalytic domain of human PHD2 (residues 181-426) was used in all; made in house; details: 1D-selective HSQC with selective 13C inversion
Sequence (Q9GZT9 181-426): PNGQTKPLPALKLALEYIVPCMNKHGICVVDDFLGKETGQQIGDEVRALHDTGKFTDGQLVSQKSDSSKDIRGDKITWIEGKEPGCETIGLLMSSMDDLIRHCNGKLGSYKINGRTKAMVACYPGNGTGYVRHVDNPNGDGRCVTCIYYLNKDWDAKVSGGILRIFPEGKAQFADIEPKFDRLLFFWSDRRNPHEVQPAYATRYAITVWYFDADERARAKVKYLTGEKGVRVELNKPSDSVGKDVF
RECORDED_METRIC: 13C-NODD displacement

Lookup: Any idea what 13C-NODD displacement was measured for CC(C)(C)OC(=O)c1ccc(-n2[nH]cc(-n3ccnn3)c2=O)nc1 ?
Found: clearly displaced NODD

Lookup: Any idea what 13C-NODD displacement was measured for Cc1nc(C(=O)NCC(=O)O)c(O)c2ccc(Oc3ccccc3)cc12 ?
Found: clearly displaced NODD

Lookup: Any idea what 13C-NODD displacement was measured for O=C(O)CNC(=O)c1ncc(-c2cccc(Cl)c2)cc1O ?
Found: clearly displaced NODD

====

Kindly state pIC50 for each of the entries shown.
target: JMJD3 (KDM6B) (Homo sapiens); test: AlphaScreen histone demethylase assay; type: biochemical; details: read-out: IC50 JMJD3 (KDM6B)
Sequence (O15054 whole entry): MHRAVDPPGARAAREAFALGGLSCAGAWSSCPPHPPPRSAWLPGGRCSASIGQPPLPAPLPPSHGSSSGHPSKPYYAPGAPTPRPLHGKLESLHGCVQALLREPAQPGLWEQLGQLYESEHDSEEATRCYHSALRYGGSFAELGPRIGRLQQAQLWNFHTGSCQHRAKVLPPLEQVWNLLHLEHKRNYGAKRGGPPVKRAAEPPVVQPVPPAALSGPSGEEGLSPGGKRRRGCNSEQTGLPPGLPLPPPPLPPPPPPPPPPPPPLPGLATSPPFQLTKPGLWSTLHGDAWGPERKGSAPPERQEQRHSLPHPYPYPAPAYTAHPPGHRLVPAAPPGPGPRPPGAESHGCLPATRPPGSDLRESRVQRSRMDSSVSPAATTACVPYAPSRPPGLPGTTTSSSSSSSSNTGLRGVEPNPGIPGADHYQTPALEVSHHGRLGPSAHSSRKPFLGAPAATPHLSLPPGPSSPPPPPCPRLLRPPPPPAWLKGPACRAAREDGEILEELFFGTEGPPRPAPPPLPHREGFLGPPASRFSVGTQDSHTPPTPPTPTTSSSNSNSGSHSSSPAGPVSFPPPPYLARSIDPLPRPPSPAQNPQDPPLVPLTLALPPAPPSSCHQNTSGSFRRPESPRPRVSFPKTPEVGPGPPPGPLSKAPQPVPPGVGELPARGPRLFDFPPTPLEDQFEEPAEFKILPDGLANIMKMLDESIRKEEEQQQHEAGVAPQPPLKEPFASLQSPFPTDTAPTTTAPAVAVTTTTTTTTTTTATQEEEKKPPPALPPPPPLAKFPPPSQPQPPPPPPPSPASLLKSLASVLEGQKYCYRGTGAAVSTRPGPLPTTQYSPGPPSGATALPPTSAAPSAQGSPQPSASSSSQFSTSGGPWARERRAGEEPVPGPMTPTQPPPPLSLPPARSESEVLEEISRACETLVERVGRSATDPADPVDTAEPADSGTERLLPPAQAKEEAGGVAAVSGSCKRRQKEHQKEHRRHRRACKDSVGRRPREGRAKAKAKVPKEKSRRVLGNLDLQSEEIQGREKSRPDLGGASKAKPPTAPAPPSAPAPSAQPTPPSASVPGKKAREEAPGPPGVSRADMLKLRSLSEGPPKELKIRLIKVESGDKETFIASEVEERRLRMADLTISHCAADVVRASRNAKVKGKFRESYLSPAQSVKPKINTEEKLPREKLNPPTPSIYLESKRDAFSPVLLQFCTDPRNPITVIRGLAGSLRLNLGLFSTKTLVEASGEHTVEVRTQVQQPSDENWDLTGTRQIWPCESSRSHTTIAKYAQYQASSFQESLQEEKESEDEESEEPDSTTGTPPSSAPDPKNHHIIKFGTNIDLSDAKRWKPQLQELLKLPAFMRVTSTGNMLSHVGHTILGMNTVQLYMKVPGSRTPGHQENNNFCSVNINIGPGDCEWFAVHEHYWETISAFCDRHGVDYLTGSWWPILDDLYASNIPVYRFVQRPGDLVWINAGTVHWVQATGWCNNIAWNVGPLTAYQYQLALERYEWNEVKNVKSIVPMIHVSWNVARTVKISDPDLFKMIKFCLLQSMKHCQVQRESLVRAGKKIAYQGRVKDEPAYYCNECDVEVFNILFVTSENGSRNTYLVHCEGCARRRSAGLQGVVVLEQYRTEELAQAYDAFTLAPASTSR
One number for each entry, as −log10 of the molar value.

Lookup: Any idea what pIC50 was measured for O=c1c(-n2ccnn2)c[nH]n1-c1cc(N2CCOCC2)ncn1 ?
Found: 4.46

Proceeding to the next compound to report its pIC50.
Lookup: Any idea what pIC50 was measured for O=C(O)CNC(=O)c1ncc(-c2cccc(Cl)c2)cc1O ?
Found: 4.43

====

molecular target: Ofd1 (Schizosaccharomyces pombe); construct: His6 (N); made in house; host or cells: E. coli BL21(DE3); test: MALDI-TOF MS Ofd1 hydroxylation assay; type: biochemical
Sequence (Q11120 whole entry): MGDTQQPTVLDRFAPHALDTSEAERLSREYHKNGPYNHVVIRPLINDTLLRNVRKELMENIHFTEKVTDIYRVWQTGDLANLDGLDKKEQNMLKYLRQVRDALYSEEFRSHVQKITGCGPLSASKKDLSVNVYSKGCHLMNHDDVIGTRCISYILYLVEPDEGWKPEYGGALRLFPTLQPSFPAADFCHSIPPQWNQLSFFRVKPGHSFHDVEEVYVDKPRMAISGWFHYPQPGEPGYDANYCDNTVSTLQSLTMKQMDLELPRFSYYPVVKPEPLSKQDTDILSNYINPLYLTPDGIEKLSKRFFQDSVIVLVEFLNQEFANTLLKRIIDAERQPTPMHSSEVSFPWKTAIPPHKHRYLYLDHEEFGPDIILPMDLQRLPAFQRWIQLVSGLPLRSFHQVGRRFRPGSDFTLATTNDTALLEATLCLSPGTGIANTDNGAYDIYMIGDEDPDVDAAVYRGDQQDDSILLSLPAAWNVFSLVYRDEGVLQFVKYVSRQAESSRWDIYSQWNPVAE
Kindly state pIC50 for each of the entries shown.
One number for each entry, as −log10 of the molar value.

Lookup: Any idea what pIC50 was measured for CC(C)(C)OC(=O)c1ccc(-n2[nH]cc(-n3ccnn3)c2=O)nc1 [IOX4] ?
Found: 4.38

More entries:
Lookup: Any idea what pIC50 was measured for O=C(O)CNC(=O)C1C(=O)N(C2CCCCC2)C(=O)N(C2CCCCC2)C1=O [GSK1278863] ?
Found: 4.62

====

Kindly state pIC50 for each of the entries shown.
biological target: JARID1B (KDM5B) (Homo sapiens, UniProt Q9UGL1); experiment: AlphaScreen histone demethylase assay; assay type: biochemical; details: read-out: IC50 JARID1B (KDM5B)
Sequence (Q9UGL1 whole entry): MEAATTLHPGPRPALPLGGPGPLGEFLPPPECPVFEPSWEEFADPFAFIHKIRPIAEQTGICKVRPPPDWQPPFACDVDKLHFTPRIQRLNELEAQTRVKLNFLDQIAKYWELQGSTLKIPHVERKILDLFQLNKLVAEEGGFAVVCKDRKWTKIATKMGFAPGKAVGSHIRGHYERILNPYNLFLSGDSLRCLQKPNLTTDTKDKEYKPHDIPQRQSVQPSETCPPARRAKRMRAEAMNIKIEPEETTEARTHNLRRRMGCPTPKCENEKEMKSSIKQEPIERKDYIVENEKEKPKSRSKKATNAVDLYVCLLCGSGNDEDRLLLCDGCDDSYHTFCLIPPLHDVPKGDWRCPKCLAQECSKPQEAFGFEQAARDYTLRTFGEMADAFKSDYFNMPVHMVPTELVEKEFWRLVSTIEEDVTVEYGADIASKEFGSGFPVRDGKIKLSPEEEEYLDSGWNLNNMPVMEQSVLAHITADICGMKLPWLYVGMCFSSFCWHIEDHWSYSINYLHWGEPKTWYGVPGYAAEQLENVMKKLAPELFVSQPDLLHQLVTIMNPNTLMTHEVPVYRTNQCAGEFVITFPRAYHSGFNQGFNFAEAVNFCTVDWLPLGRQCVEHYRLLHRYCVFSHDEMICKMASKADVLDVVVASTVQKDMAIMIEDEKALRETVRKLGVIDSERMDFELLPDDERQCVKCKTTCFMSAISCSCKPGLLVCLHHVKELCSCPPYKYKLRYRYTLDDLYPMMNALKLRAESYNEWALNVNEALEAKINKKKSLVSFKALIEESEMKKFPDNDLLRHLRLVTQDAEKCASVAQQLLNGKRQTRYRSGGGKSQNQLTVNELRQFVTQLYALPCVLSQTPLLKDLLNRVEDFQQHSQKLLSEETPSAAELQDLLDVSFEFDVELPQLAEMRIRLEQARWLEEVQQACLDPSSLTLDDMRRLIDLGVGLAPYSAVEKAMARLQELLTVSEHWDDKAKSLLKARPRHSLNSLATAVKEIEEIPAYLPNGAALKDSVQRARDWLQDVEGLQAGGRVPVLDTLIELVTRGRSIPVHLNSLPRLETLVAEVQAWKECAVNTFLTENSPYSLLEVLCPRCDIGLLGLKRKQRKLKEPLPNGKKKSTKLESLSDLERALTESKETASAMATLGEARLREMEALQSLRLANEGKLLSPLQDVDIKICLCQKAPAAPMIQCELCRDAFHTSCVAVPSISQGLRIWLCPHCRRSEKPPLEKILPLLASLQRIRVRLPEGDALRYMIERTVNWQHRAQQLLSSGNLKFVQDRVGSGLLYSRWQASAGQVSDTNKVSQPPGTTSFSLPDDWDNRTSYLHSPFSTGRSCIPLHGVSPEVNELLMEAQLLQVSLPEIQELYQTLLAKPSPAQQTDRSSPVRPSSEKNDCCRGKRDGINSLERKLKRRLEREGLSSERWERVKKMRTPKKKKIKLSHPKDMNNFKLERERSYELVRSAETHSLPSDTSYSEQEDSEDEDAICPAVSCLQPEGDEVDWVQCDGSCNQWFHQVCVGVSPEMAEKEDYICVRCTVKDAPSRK
One number for each entry, as −log10 of the molar value.

Lookup: Any idea what pIC50 was measured for CC(C)(C)OC(=O)c1ccc(-n2[nH]cc(-n3ccnn3)c2=O)nc1 ?
Found: 4.06

Proceeding to the next compound to report its pIC50.
Lookup: Any idea what pIC50 was measured for O=C(O)CNC(=O)c1ncc(-c2cccc(Cl)c2)cc1O ?
Found: 4.52

====

molecular target: PHD1 (Homo sapiens); experiment: MALDI-TOF MS PHD hydroxylation assay; type: biochemical; details: 1μM isolated recombinant human PHD1, MALDI-TOF MS; read-out: IC50 PHD1
Sequence (Q96KS0 whole entry): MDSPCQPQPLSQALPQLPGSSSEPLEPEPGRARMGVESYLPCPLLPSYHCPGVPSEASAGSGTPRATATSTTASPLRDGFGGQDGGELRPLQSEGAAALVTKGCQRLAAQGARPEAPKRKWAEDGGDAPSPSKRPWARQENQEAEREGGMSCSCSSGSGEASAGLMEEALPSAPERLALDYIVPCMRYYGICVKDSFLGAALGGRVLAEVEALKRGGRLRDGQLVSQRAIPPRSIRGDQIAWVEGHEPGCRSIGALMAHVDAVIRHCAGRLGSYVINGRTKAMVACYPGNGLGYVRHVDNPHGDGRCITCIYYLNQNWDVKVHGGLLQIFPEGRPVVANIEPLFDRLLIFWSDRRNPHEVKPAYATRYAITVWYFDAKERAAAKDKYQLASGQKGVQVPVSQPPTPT
Kindly state IC50 for each of the entries shown.
One number for each entry, in nM.

Some solved entries appear below for comparison.
Lookup: Any idea what IC50 was measured for Cc1nc(C(=O)NCC(=O)O)c(O)c2ccc(Oc3ccccc3)cc12 ?
Found: 1400

Lookup: Any idea what IC50 was measured for O=C(O)CNC(=O)c1ncc(-c2cccc(F)c2)cc1O ?
Found: 590

For the 3 compounds below, give their IC50 values.
1. CC(C)(C)OC(=O)c1ccc(-n2[nH]cc(-n3ccnn3)c2=O)nc1
2. O=c1c(-n2ccnn2)c[nH]n1-c1cc(N2CCOCC2)ncn1
3. O=C(O)CNC(=O)c1ncc(-c2cccc(Cl)c2)cc1O

Found:
550
1450
840
